Sourced from PubChem BioAssay (NCI)

- System: HOP-62 NSCLC
- assay-overview: NCI-60 one-dose screen, 48 h
- cond: 10 µM unless noted
The panel holds about 83,000 compounds, 20% with a hit somewhere; the sample as a whole holds those more often. Active and inactive are the calls of the source. Rule for the calls: active = growth percent below 10; inactive = the rest.
Labels: YES for active, NO for inactive

record_smiles=COc1ccc(-c2nn3c(-c4cc(F)c(Cl)cc4Cl)nnc3s2)cc1 qualitative_label=NO
record_smiles=CCNC(=S)n1nc(SC)c(C(=O)OCC)c1N qualitative_label=NO
record_smiles=Cc1ccc2nc3ccccc3c(NCc3ccc(Cl)cc3)c2c1 qualitative_label=NO
record_smiles=CN1CCN(Cc2ccc(NC(=O)c3cccc(C#Cc4c(N)ncc5ccc(F)cc45)c3)cc2C(F)(F)F)CC1 qualitative_label=YES
record_smiles=Cc1n(Cc2ccc3ccccc3c2)c(Cl)c(Cl)[n+]1Cc1ccc2ccccc2c1 qualitative_label=NO

---

- Test system: OVCAR-3 ovarian
- assay-overview: NCI-60 one-dose screen, 48 h
- cond: 10 µM unless noted
Compounds without any hit were thinned out: in the full panel of roughly 83,000, 20% have a hit. Active and inactive are the calls of the source. The calls were made as follows: active = growth percent below 10; inactive = the rest.
Labels: active, inactive

compound="Nc1nc(N)c2c(n1)NC(c1ccc(Cl)cc1)CC(c1cccc(Nc3ccncc3)c1)=N2 (centres undefined)" qualitative_label=inactive
compound=CC1(C)C(N)=Nc2cc(OCCCN3Cc4ccc(OCCc5cn(CC(=O)N6CCC(CCN7CCCC7)CC6)nn5)cc4C3)c(OCC3CC3)cc21 qualitative_label=inactive
compound=CN1C(=O)/C(=C/c2ccc(C(=O)Nc3ncc(Cc4ccccc4Cl)s3)cc2)SC1=S qualitative_label=inactive
compound=O=C1c2cccc3cccc(c23)C(=O)N1N1C(=O)c2cccc3c(N4CCNCC4)ccc(c23)C1=O qualitative_label=inactive
compound=COc1ccc(Nc2ncnc3ccc(-c4cncc(NS(C)(=O)=O)c4)cc23)cc1Cl qualitative_label=inactive
compound=BrC1=C(Br)C(Br)(Br)C(Br)=C1Br qualitative_label=inactive
compound=O=C1C(Nc2ccc(Cl)cc2)=C(I)C(=O)c2ncccc21 qualitative_label=active
compound="CCCn1nc(C(=O)N2CCCCC2)c2c1CCC(N1CCC(c3ccncc3)CC1)C2 (centres undefined)" qualitative_label=inactive
compound=Cc1ccc(NC(=O)N/C(N)=N/c2nc(=O)c3ccccc3s2)cc1 qualitative_label=inactive

---

- System: LOX IMVI melanoma
- assay-overview: NCI-60 one-dose screen, 48 h (100 = growth as untreated, 0 = no growth, -100 = all killed)
- cond: 10 µM unless noted
Compounds without any hit were thinned out: in the full panel of roughly 83,000, 20% have a hit. Activity calls are given as the source filed them. The calls were made as follows: active = growth percent below 10; inactive = the rest.
quantity-kind: growth

compound=O=C(Cn1cc(CN2CCN(c3ccnc4cc(Cl)ccc34)CC2)nn1)Nc1cccc([N+](=O)[O-])c1 quantity_kind=growth test_value="85.1% (inactive)"
compound="COc1ccc(/C=N/C2=C(C#N)C(c3ccccc3)c3c(ccc4ccccc34)O2)cc1 (centres undefined)" quantity_kind=growth test_value="28.5% (inactive)"
compound=O=C(Oc1ccc(CO[N+](=O)[O-])cc1)c1ccccc1 quantity_kind=growth test_value="-87.4% (active)"
compound=CN1CCN(CCNC(=O)c2cccc(CN3c4cccc5c4C(=Cc4cccnc43)N(C)C5=O)c2)CC1 quantity_kind=growth test_value="8.25% (active)"
compound=COc1ccc(/C(C)=C(\c2ccc(OCCN3CCCCCC3)cc2)c2ccc(OC(=O)C3CCCCC3)cc2)cc1 quantity_kind=growth test_value="-93.5% (active)"
compound=COc1ccc(/C=C/C(=O)c2cc3c(N)c(C(=O)Nc4ccccc4)sc3nc2C)cc1 quantity_kind=growth test_value="2.65% (active)"
compound=O=C1/C(=C/c2cn(-c3ccccc3)nc2-c2ccccc2)SC(=S)N1c1ccc(Cl)cc1 quantity_kind=growth test_value="63.3% (inactive)"
compound=CCCCSc1ccc2nc(-c3ccc(OCCCN=C(N)N)cc3)cn2c1 quantity_kind=growth test_value="61.3% (inactive)"
compound=N#CSc1c[nH]c2ccc(/C=C/C(=O)/C=C(/C=C/c3ccc4[nH]cc(SC#N)c4c3)OB(F)F)cc12 quantity_kind=growth test_value="-91.4% (active)"

---

- System: SK-MEL-2 melanoma
- assay-overview: NCI-60 one-dose screen, 48 h (100 = growth as untreated, 0 = no growth, -100 = all killed)
- cond: 10 µM unless noted
Compounds without any hit were thinned out: in the full panel of roughly 83,000, 20% have a hit.
Returns Met if the recorded growth is greater than or equal to 90%, and Not met otherwise.

molecule="COc1ccc(C2=C(CN)C(O)NC(=NCC(=O)c3ccc4ccccc4c3)N2)cc1 (stereo not drawn)" qualitative_label=Met
molecule=O=C(Cn1cc(CN2CCN(c3ccnc4cc(Cl)ccc34)CC2)nn1)Nc1cccc([N+](=O)[O-])c1 qualitative_label=Met
molecule=CN(C)C(=O)c1cc2cnc(Nc3ccc(-c4csc5c(=S)cc(N6CCOCC6)oc45)cc3)nc2n1C1CCCC1 qualitative_label="Not met"
molecule=Cc1ccc(C(=O)c2ccc(CC(=O)N=Nc3c(O)[nH]c4ccc(OC(F)(F)F)cc34)n2C)cc1 qualitative_label=Met
molecule="COc1ccc2c(c1)CCNC21C(=O)Nc2c(Br)cc(Br)cc21 (stereo not drawn)" qualitative_label=Met
molecule=COc1ccc(/C=N/NC(=O)CN2CCN(c3cc4c(cc3F)c(=O)c(C(=O)O)cn4C3CC3)CC2)cc1O qualitative_label=Met
molecule=Fc1ccccc1-c1cnn2cc(-c3ccccc3)cnc12 qualitative_label=Met
molecule=O=C(c1ccc(Nc2nccc(NCCCNc3ccnc4cc(Cl)ccc34)n2)cc1)N1CCCCC1 qualitative_label="Not met"
molecule="Nc1nc(Cl)nc2c1ncn2C1OC(CO)C(O)C1O (stereo not drawn)" qualitative_label="Not met"
molecule=O=C1/C(=C/c2ccccc2)CN(C(=O)C(Cl)Cl)C/C1=C\c1ccccc1 qualitative_label="Not met"
molecule=Nc1n[nH]c2cccc(C#Cc3cccc(C(=O)Nc4ccc(CN5CCOCC5)c(C(F)(F)F)c4)c3)c12 qualitative_label="Not met"
molecule=CON1CCC[C@]2(C)[C@H]3CC[C@@H]4[C@H]5[C@@H](O)C(C)(C)CC[C@]5(CO)CC[C@@]4(C)[C@]3(C)CC[C@H]2C1(C)C qualitative_label=Met
molecule=COc1ccc(/C(C)=C(\c2ccc(OCCN3CCCCCC3)cc2)c2ccc(OC(=O)C3CCCCC3)cc2)cc1 qualitative_label="Not met"
molecule=CC/C(=C(/c1ccc(O)cc1)c1ccc(OCCN2CCCCCC2)cc1)c1ccc(Cl)cc1 qualitative_label=Met
molecule=COc1ccc(/C=C/C(=O)c2cc3c(N)c(C(=O)Nc4ccccc4)sc3nc2C)cc1 qualitative_label="Not met"
molecule="Nc1nc(N)c2c(n1)NC(c1ccc(Cl)cc1)CC(c1cccc(Nc3ccncc3)c1)=N2 (stereo not drawn)" qualitative_label="Not met"
molecule=Cc1cc(N2CCN(CC(=O)Nc3ccc4c(ccn4Cc4ccccc4)c3)CC2)nc(N2CCCCCC2)n1 qualitative_label="Not met"

---

- Test system: MDA-MB-435 melanoma
- assay-overview: NCI-60 one-dose screen, 48 h
- cond: 10 µM unless noted
This is part of a sample that, as a whole, favours compounds with a hit. Of some 83,000 tested, about 20% had one in any assay. Activity calls are given as the source filed them. How the source made its calls: active means growth percent below 10; inactive means the rest.
Possible outcomes: active, inactive

compound="C=C1CC[C@@H]2[C@](C)(COC(C)=O)[C@H](OC(C)=O)CC[C@@]2(C)[C@@H]1CC(Nc1ccc(S(=O)(=O)Nc2nccs2)cc1)C1=CCOC1=O (stereo partly drawn)" target_or_system="MDA-MB-435 melanoma" qualitative_label=active
compound=O=S(=O)(Nc1ccc(F)cc1)c1ccc(-c2cnc(C3CC3)o2)cc1 target_or_system="MDA-MB-435 melanoma" qualitative_label=active
compound=COc1cc2c(cc1OCCCOC1=C=C=C(c3ccc4c(c3)c3cc(-c5ccc(OCCCOc6cc7c(cc6OC)C(=O)N6CCC[C@H]6C=N7)cc5)ccc3n4S(=O)(=O)c3ccc(C)cc3)C=C1)N=C[C@@H]1CCCN1C2=O target_or_system="MDA-MB-435 melanoma" qualitative_label=inactive
compound=CC(=O)c1c(C)nc2ccccc2c1/C=C/c1cccc(C)c1 target_or_system="MDA-MB-435 melanoma" qualitative_label=active
compound=CCCCCCCCCCCCCCCCCCn1cc(COc2ccc(C=O)cc2)nn1 target_or_system="MDA-MB-435 melanoma" qualitative_label=inactive
compound=COc1ccc(-c2csc(NC(=O)CN3CCN(CCO)CC3)n2)cc1NS(=O)(=O)c1cccc2c(N(C)C)cccc12 target_or_system="MDA-MB-435 melanoma" qualitative_label=inactive
compound=CCCCCCCCn1ccc2cc(NC(=O)CN3CCN(c4nc(C)cc(N5CCCCC5)n4)CC3)ccc21 target_or_system="MDA-MB-435 melanoma" qualitative_label=inactive
compound=O=C1c2cccc3cccc(c23)C(=O)N1N1C(=O)c2cccc3c(N4CCNCC4)ccc(c23)C1=O target_or_system="MDA-MB-435 melanoma" qualitative_label=inactive
